- Tested on: IGROV1 ovarian
- PROTOCOL DETAILS: NCI-60 one-dose screen, 48 h (100 = growth as untreated, 0 = no growth, -100 = all killed)
- CONDITIONS USED: 10 µM unless noted
Compounds without any hit were thinned out: in the full panel of roughly 83,000, 20% have a hit.
// reported growth per item

{"COMPOUND": "CCN(CC)Cc1cc(C=C2C(=O)NC(=S)NC2=O)cc(OC)c1O", "ASSAY SYSTEM": "IGROV1 ovarian", "growth, %": 112}
{"COMPOUND": "Fc1ccc(CNc2c3ccccc3nc3ccccc23)c(F)c1", "ASSAY SYSTEM": "IGROV1 ovarian", "growth, %": 35.7}
{"COMPOUND": "CCOC(=O)c1ccc(NC(=O)c2nc(-c3cc(OC)c(OC)c(OC)c3)n(-c3ccc(Cl)cc3)n2)cc1", "ASSAY SYSTEM": "IGROV1 ovarian", "growth, %": 88.9}
{"COMPOUND": "CS(=O)(=O)Nc1cncc(-c2ccc3ncnc(Nc4cncc(Cl)c4)c3c2)c1", "ASSAY SYSTEM": "IGROV1 ovarian", "growth, %": 69.8}
{"COMPOUND": "O=C(O)c1cn(C2CC2)c2cc(N3CCN(Cc4ccc5ccccc5c4O)CC3)c(F)cc2c1=O", "ASSAY SYSTEM": "IGROV1 ovarian", "growth, %": 33.3}
{"COMPOUND": "COc1cc2c(cc1OCCCN1CCN(CCCOc3cc4c(cc3OC)C(=O)N3CCC[C@H]3C=N4)CC1)C=CC(C)(C)O2", "ASSAY SYSTEM": "IGROV1 ovarian", "growth, %": -89.1}
{"COMPOUND": "COC(=O)c1nc(-c2ccccc2)oc1S(=O)(=O)Cc1ccccc1", "ASSAY SYSTEM": "IGROV1 ovarian", "growth, %": 85.6}
{"COMPOUND": "CCn1c(SCC(=O)N/N=C(\\C)c2ccc(Cl)cc2)nc2c1c(=O)n(C)c(=O)n2C", "ASSAY SYSTEM": "IGROV1 ovarian", "growth, %": 96.5}
{"COMPOUND": "COc1ccc(/C=C(\\C#N)n2nnc3cc(Cl)ccc32)cc1", "ASSAY SYSTEM": "IGROV1 ovarian", "growth, %": 3.88}
{"COMPOUND": "C/C(Cc1ccc(Cl)cc1)=C(\\c1ccc(O)cc1)c1ccc(Cl)cc1", "ASSAY SYSTEM": "IGROV1 ovarian", "growth, %": 96.8}
{"COMPOUND": "O=C1Nc2ccc(C(=O)O)cc2/C1=N/c1nnc(Sc2ccccc2)s1", "ASSAY SYSTEM": "IGROV1 ovarian", "growth, %": 99.7}
{"COMPOUND": "NNc1nc(-c2cccnc2)nc2c1sc(=S)n2-c1ccccc1", "ASSAY SYSTEM": "IGROV1 ovarian", "growth, %": 97.9}
{"COMPOUND": "Cc1ccc2c(n1)C(=O)C(Br)=C(CC(C)C)C2=O", "ASSAY SYSTEM": "IGROV1 ovarian", "growth, %": 81.5}
{"COMPOUND": "c1ccc(-c2oc(-c3ccccc3)c(CN3CCCCC3)c2CN2CCCCC2)cc1", "ASSAY SYSTEM": "IGROV1 ovarian", "growth, %": 44.7}
{"COMPOUND": "Nc1cnc(C(=O)NNc2nc3cc(F)ccc3n3cccc23)cn1", "ASSAY SYSTEM": "IGROV1 ovarian", "growth, %": 26}
{"COMPOUND": "C=C1C(=O)O[C@H]2[C@H]1CC/C(Cn1cc(-c3ccccc3)nn1)=C\\CC[C@@]1(C)O[C@@H]21", "ASSAY SYSTEM": "IGROV1 ovarian", "growth, %": 6.52}
{"COMPOUND": "COc1ccc2c(c1OC)CO[C@@H]2[C@H]1c2c(cc3c(c2OC)OCO3)CCN1S(=O)(=O)c1cn(C)cn1", "ASSAY SYSTEM": "IGROV1 ovarian", "growth, %": 24.7}
{"COMPOUND": "COc1ccc(C2=Nc3c(N)nc(N)nc3NC(c3cccc(Nc4ccnc5cc(C(F)(F)F)ccc45)c3)C2)cc1 (configuration not stated)", "ASSAY SYSTEM": "IGROV1 ovarian", "growth, %": 72.1}
{"COMPOUND": "O=C(CN1C(=O)S/C(=C\\c2ccccc2)C1=O)Nc1ncc(Cc2ccccc2Cl)s1", "ASSAY SYSTEM": "IGROV1 ovarian", "growth, %": 94.6}
{"COMPOUND": "OCCn1cc(-c2nc(-c3c[nH]c4ncccc34)cs2)c2ccccc21", "ASSAY SYSTEM": "IGROV1 ovarian", "growth, %": 56.1}
{"COMPOUND": "CS(=O)(=O)Nc1cc(-c2ccc3ncnc(Nc4ccc5c(cnn5Cc5cccc(F)c5)c4)c3c2)cnc1Cl", "ASSAY SYSTEM": "IGROV1 ovarian", "growth, %": -51.2}
{"COMPOUND": "COC(CC(F)F)c1cn(S(=O)(=O)c2ccc(C)cc2)c2ccccc12 (configuration not stated)", "ASSAY SYSTEM": "IGROV1 ovarian", "growth, %": 35.8}
{"COMPOUND": "CCCn1cc2c(=O)nc3sc(Cc4ccccc4)c(C)n3c2n1", "ASSAY SYSTEM": "IGROV1 ovarian", "growth, %": 105}
{"COMPOUND": "CC(C)(Sc1cc(C(C)(C)C)c(OC(=O)CCCC(=O)O)c(C(C)(C)C)c1)Sc1cc(C(C)(C)C)c(OC(=O)CCCC(=O)O)c(C(C)(C)C)c1", "ASSAY SYSTEM": "IGROV1 ovarian", "growth, %": 36.6}
{"COMPOUND": "CSc1nc2ncc([N+](=O)[O-])c(=O)n2[nH]1", "ASSAY SYSTEM": "IGROV1 ovarian", "growth, %": 105}
{"COMPOUND": "N#Cc1c(-c2ccc(Cl)cc2)nc(NN2C(=O)c3ccccc3C2=O)nc1N1CCOCC1", "ASSAY SYSTEM": "IGROV1 ovarian", "growth, %": 109}
{"COMPOUND": "CN(/C(N)=N/N=C/c1c2ccccc2cc2ccccc12)C1CCCCC1", "ASSAY SYSTEM": "IGROV1 ovarian", "growth, %": 40.3}
{"COMPOUND": "N#CC1=C(N)Oc2c(sc3c(Br)cccc23)C1c1ccc(Cl)cc1 (configuration not stated)", "ASSAY SYSTEM": "IGROV1 ovarian", "growth, %": 27.2}
{"COMPOUND": "Nc1n[nH]c2cccc(C#Cc3cccc(NC(=O)c4cc(F)cc(C(F)(F)F)c4)c3)c12", "ASSAY SYSTEM": "IGROV1 ovarian", "growth, %": 25.5}
{"COMPOUND": "Oc1ccc(Cl)cc1/C=N\\NC(=S)N/N=C/c1cc(Cl)ccc1O", "ASSAY SYSTEM": "IGROV1 ovarian", "growth, %": 22.2}
{"COMPOUND": "Cc1c2cnccc2c(C)c2c1c1cc(C#N)ccc1n2C", "ASSAY SYSTEM": "IGROV1 ovarian", "growth, %": -11.4}
{"COMPOUND": "CCN(CC)c1ccc(\\C=N/N=C(N)/C(N)=N\\N=C/c2ccc(N(CC)CC)cc2)cc1", "ASSAY SYSTEM": "IGROV1 ovarian", "growth, %": 105}
